TARGET_OF_ASSAY: NR2F6 (Homo sapiens, UniProt P10588)
Construct: expressed in transfected cells; also transient transfection
Sequence (P10588 whole entry): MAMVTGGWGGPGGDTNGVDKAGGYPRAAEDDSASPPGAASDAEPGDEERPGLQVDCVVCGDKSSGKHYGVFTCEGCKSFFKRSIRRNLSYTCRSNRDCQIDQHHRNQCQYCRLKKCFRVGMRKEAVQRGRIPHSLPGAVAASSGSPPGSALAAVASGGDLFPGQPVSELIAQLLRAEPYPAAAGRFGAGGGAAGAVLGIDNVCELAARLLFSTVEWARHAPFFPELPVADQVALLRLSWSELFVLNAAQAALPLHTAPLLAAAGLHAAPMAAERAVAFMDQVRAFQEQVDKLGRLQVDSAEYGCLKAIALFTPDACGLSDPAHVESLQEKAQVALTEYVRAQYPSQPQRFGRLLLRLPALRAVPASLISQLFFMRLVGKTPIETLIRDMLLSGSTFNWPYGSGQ
PROTOCOL_NOTES: NR2F6 agonist screening, Firefly signal cmpd/DMSO
Type: cell-based
TEST_SETTINGS: 10 uM; clone F4
Firefly F4, cmpd/DMSO (mean) class ranges: A: < 0.8; B: ≥ 0.8 and < 1; C: ≥ 1

Worked examples, 3 molecules total:
{"columns": ["MOLECULE", "LABEL_CLASS"],
 "data": [
  ["COC(=O)c1[nH]c2c(c(C(F)(F)F)nc3ccc(OC)cc32)c1N [Compound Z47]", "C"],
  ["O=C(O)c1ccc(-n2ncc(Cl)c(Cl)c2=O)cc1 [Compound 44]", "C"],
  ["CCOC(=O)c1cnc2ccc(C)cc2c1NCCCN(C)C [Compound Z33]", "C"]
]}

Moving on to another molecule below.
## Input Exam item: assign Cc1cc(C)c2ncc(C(=O)N(C)C)c(NCCCN(C)C)c2c1 [Compound Z31] to the correct category.
## Output B

----------
TARGET_OF_ASSAY: NR2F6 (Homo sapiens)
Construct: expressed in transfected cells; also transient transfection
PROTOCOL_NOTES: NR2F6 agonist screening, Firefly signal cmpd/DMSO
Assay type: cell-based
TEST_SETTINGS: 0.5 uM; F4
MEASURED_ENDPOINT: Firefly F4, cmpd/DMSO (mean)
API note: the answer field is a bare number with no unit suffix.

Use the examples below as a reference point.
{"columns": ["MOLECULE", "TARGET_OF_ASSAY", "RESULT_NUMBER"],
 "data": [
  ["Cc1cc(S(=O)(=O)[C@H]2CS(=O)(=O)C[C@@H]2NCC2CCCO2)ccc1F (stereo partly shown)", "NR2F6 (Homo sapiens)", 1.0],
  ["COCCN[C@H]1CS(=O)(=O)C[C@@H]1S(=O)(=O)c1cccs1", "NR2F6 (Homo sapiens)", 1.3],
  ["CCCCN[C@H]1CS(=O)(=O)C[C@@H]1S(=O)(=O)c1ccc(Cl)cc1", "NR2F6 (Homo sapiens)", 0.9],
  ["CC(C)CCN[C@H]1CS(=O)(=O)C[C@@H]1S(=O)(=O)c1cccs1", "NR2F6 (Homo sapiens)", 1.7],
  ["CCC(C)N[C@H]1CS(=O)(=O)C[C@@H]1S(=O)(=O)c1ccc(Cl)cc1 (stereo partly shown)", "NR2F6 (Homo sapiens)", 0.9],
  ["CC(=O)Nc1ccc(S(=O)(=O)[C@H]2CS(=O)(=O)C[C@@H]2NC2CC2)cc1", "NR2F6 (Homo sapiens)", 1.0],
  ["O=S1(=O)C[C@H](N2CCCCC2)[C@@H](S(=O)(=O)c2cccs2)C1", "NR2F6 (Homo sapiens)", 1.1],
  ["C[C@@H]1C[C@H](C)CN([C@H]2CS(=O)(=O)C[C@@H]2S(=O)(=O)c2ccccc2)C1", "NR2F6 (Homo sapiens)", 1.2]
]}

## Input Sample CCC(C)N[C@H]1CS(=O)(=O)C[C@@H]1S(=O)(=O)c1ccc(C)cc1 (stereo partly shown) — what was its Firefly F4, cmpd/DMSO (mean)?
## Output 1.3

## Input Tell me the measured Firefly F4, cmpd/DMSO (mean) of O=S1(=O)C[C@H](N2CCCC2)[C@@H](S(=O)(=O)c2cccs2)C1 , please.
## Output 1.7

## Input Could you share which Firefly F4, cmpd/DMSO (mean) value was measured for COc1ccc(CCN[C@H]2CS(=O)(=O)C[C@@H]2S(=O)(=O)c2ccc(Cl)cc2)cc1OC ?
## Output 1.2

## Input What Firefly F4, cmpd/DMSO (mean) value was documented for this molecule, CC(=O)N1CCN([C@H]2CS(=O)(=O)C[C@@H]2S(=O)(=O)c2ccc(F)c(C)c2)CC1 ?
## Output 1.5

## Input Fill in: Firefly F4, cmpd/DMSO (mean) of O=S1(=O)C[C@H](NC2CCCCC2)[C@@H](S(=O)(=O)c2ccccc2)C1 is ___
## Output 1.1

## Input Consider the molecule shown here: O=S1(=O)C[C@H](NC2CCCCC2)[C@@H](S(=O)(=O)c2ccc(Cl)cc2)C1 What is its recorded Firefly F4, cmpd/DMSO (mean)?
## Output 1.6

## Input I am curious: what Firefly F4, cmpd/DMSO (mean) value has been reported for CCCN[C@H]1CS(=O)(=O)C[C@@H]1S(=O)(=O)c1ccc(Cl)cc1 ?
## Output 1.1

## Input Recorded Firefly F4, cmpd/DMSO (mean) of CC1CCN([C@H]2CS(=O)(=O)C[C@@H]2S(=O)(=O)c2ccc(Cl)cc2)CC1 , please.
## Output 1.3
